Ref: the supplement of paper PMC11502859

system: HEK293T; experiment: median enrichment of reporter reads in eGFP-reduced (low/intermediate) vs eGFP-high sorted cells (eGFP-extension fusion abundance) (ratio); higher = stronger loss of eGFP-fusion protein abundance (more destabilising extension)
measure: median enrichment
One number for each entry.

// below: answered substances
substance: SRETVGG [JUN]
experimental_system: HEK293T
median enrichment: 3.4
//
substance: SSSSSSSS [Ser08]
experimental_system: HEK293T
median enrichment: 0.512
//
substance: YPTVGPGWAGRSWCVTGCPGRHVLALTVPGLSLPAAAIQEIVATVTLTSSAWFLPLPSGVDKGPLIIFSFVFL [DVL2]
experimental_system: HEK293T
median enrichment: 7.88
//
substance: YEQGGLGWPSPGGCGWGQETQPTTAPVSSPHKAAWVCTVCKLQDTLPGDPRGHSYTLFTRKIQRSQ [C2orf50]
experimental_system: HEK293T
median enrichment: 9.09
//
substance: EYPRFKKRT [PPP2R1B]
experimental_system: HEK293T
median enrichment: 1.16
//
substance: LKKKKG [TNFAIP6]
experimental_system: HEK293T
median enrichment: 3.07
//
substance: WKTCSLSILPMKIHFTHPPPLLFCHVFPSLCIARFEVTDTHPKPCCSQSPILHILMGK [SYNJ2BP]
experimental_system: HEK293T
median enrichment: 7.06
//
substance: EQPGTAFSFPAEYC [RBM34]
experimental_system: HEK293T
median enrichment: 0.275
//
substance: LGFRSAT [KIF15]
experimental_system: HEK293T
median enrichment: 1.28
//
substance: LPSESGGKTPPSLCILNH [UGT3A1]
experimental_system: HEK293T
median enrichment: 0.835

Batch: median enrichment for all items listed.
1. VVVVVVVV [Val08]
2. QCHLLSPTTP [PPY]
3. NNNNNNNNN [Asn09]
4. SEELPGRTQDAEPRSLPG [ACAN]

Reply:
1. 10.5
2. 0.404
3. 0.367
4. 0.794

Please give median enrichment, item by item, for the list that follows.
1. YQLINLE [BRWD3]
2. YKKRCCLGLVGGACFS [HIGD1A]
3. RRPVPR [TBC1D24]
4. KKKLSHREKNI [OGA]
5. SDRTCLRGRRTLAWAQESEAAFLLRGPSGESGPRYHARTLRGPVSCRRVSTFPPNPGLTALRSARRARAETRVGCGELKEPIK [UQCC3]
6. RQEGPSGRDGPGGGQMGRCGRHVIDSTEGLSCVPPTLPWTDSEGPPGTSAKAG [KCNF1]
7. YWWLVVMNSYSVASSLPASHLPSTSQLLPSLTEANIFI [NTRK3]

Reply:
[0.91, 3.33, 1.51, 0.598, 3.65, 5.07, 23.2]

----------
system: HEK293T; test: median enrichment of reporter reads in eGFP-reduced (low/intermediate) vs eGFP-high sorted cells (eGFP-extension fusion abundance) (ratio); higher = stronger loss of eGFP-fusion protein abundance (more destabilising extension)
Classification field: True = median enrichment at or over 10; False = median enrichment under 10.

These recorded examples may help you get a feel for the data.
substance: RGQAAPVLGEGG [DEPDC5]
label: False

substance: SYFRLESKTS [PIK3CG]
label: False

substance: YPV [HNRNPUL1]
label: False

substance: QRRERCASILEGQQEAELFCLDSHHGPFAENCLGFQQLHICICEL [TAFA4]
label: True

substance: RLYRLRR [ST3GAL6]
label: True

Task item: Please tell me: is the substance QKVPLANCLEAQHNPKALFR [HIST1H1E] at or over 10 in terms of median enrichment?
Reply: False

----------
tested on: HEK293T; assay: median enrichment of reporter reads in eGFP-reduced (low/intermediate) vs eGFP-high sorted cells (eGFP-extension fusion abundance) (ratio); higher = stronger loss of eGFP-fusion protein abundance (more destabilising extension)
Exercise: state measured median enrichment for each of the sequences provided.
Give bare numbers.

sequence_input: LNGVQAQRPLGVMTKCSCTTVLKELRLLPFF [DYTN]
measure: median enrichment
test_value: 8.97

sequence_input: EIKCTRSQ [NLRC4]
measure: median enrichment
test_value: 9.53

sequence_input: ECDKVQPSDLIIHKIIYT [ZNF679]
measure: median enrichment
test_value: 8.95

Please give median enrichment, item by item, for the list that follows.
1. YVTTPRSSAFKTKRDWGSGEGEEEQEEKKYSELLQVTLIKNLL [NR5A2]
2. EHVGSVPTQCFGKCKI [DNAH5]
3. WVAPPSWGEVPSRLRRRGARGRS [PHLDB3]

Reply:
1. 8.46
2. 0.681
3. 16.2

Task item: Record request: median enrichment value, item EEEEEEEE [Glu08]
Reply: 0.411

----------
test system: HEK293T; test: median enrichment of reporter reads in eGFP-reduced (low/intermediate) vs eGFP-high sorted cells (eGFP-extension fusion abundance) (ratio); higher = stronger loss of eGFP-fusion protein abundance (more destabilising extension)
For each of the substances below, state its median enrichment.
Answers are plain numbers.

Can you give me median enrichment for all of these, one by one?
1. WLHNPVYAFCTKKK [ZSCAN5A]
2. LTQPRGGSLVFVLKFLVPNVFSSTFS [IL36G]
3. SPAPHHPQEHSTHHRQPLETSYMSLGAEREVPSPCRTRSCMCLTQVWTGGHLGAGQGHPSLHIT [RABEPK]

Reply:
8.24
15.7
7.59

----------
test system: HEK293T; experiment: median enrichment of reporter reads in eGFP-reduced (low/intermediate) vs eGFP-high sorted cells (eGFP-extension fusion abundance) (ratio); higher = stronger loss of eGFP-fusion protein abundance (more destabilising extension)
Label y when median enrichment is at or above 7; anything below gets n.

Please review the entries below; each comes with its answer.
substance: LPGLRRTLWTECLRTSYSLMLNPFHFLSFHSWVDSDHKDSWGFPGRTLHLMEHLNCRFCFPPLPHVIIKL [LCE2B]
label: n
//
substance: LFSFQILGTETI [FBXO4]
label: y
//
substance: YINEENKRS [CLEC7A]
label: n
//
substance: QPPARQRGHRRASPECRPWVAGPGSLVPPGGHRHRLAWQAGPLCHPLLGACRPFPSTPQVFQALLPQFPKWNHLTSAAPDLPG [SECTM1]
label: n
//
substance: KKVGTMRGVGYP [Degron APPBP2]
label: n
//
substance: QLYVGLSLEYVWSPGLSRLEQQSLLLAYHRD [ZFYVE21]
label: y

Task item: Textbook exercise: given the entry MLSESRNFPAQA [Degron KLHDC3] , state whether its median enrichment is greater than or equal to 7.
Reply: n

Task item: And the next one, SVPLSHPYL [KLK2] ?
Reply: n

Task item: Similarly, CLFCPHIFCFLGRMAEAWWLPPRSGTD [NR1H3] ?
Reply: y

Task item: Can you handle YSHPPPLGVPNVPSAVPAAAPLHPQLHHPLSHSRSCTPAFQLCPRGF [PRKCG] next?
Reply: n

Task item: Can you handle KNAQLL [ROR1] next?
Reply: n

----------
test system: HEK293T; experiment: median enrichment of reporter reads in eGFP-reduced (low/intermediate) vs eGFP-high sorted cells (eGFP-extension fusion abundance) (ratio); higher = stronger loss of eGFP-fusion protein abundance (more destabilising extension);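 note: lentiviral eGFP-IRES-mCherry reporter pool sorted by FACS 96 h post-transduction, gated on mCherry-high cells, Illumina read counts normalized per million, median across four biological replicates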
Each entry falls into one class according to its median enrichment; the ranges are class 0 (below 5), class 1 (5 to below 10), class 2 (10 or more)

A selection of reference data follows.
substance: LACPFCPVGPQAHSGVTEA [TLX1]
label: class 1
--
substance: SAQQSHHPASQAGGRSWGRGLSPVRLLLVKGQGPGQASSSVQVILASVVGGRESKTCSAVSSSGD [PIK3C2B]
label: class 0
--
substance: WPVPGALLRPTTASWVGRTGSGGKSQRDQDGGCGAAFPVASIARRVFVCLSVFLTSFFYIFISRQS [NR6A1]
label: class 1
--
substance: SVAMVKVSVAAAAMASRRRCWDCFALEPASGCPLQWLCYCMDCILDFMCMSQ [DYNLL2]
label: class 2
--
substance: SPSDYIFNTTPPTPSWVRVSPVCPRPIKSTCHC [GPS2]
label: class 1

Task item: Into which category would you place WPSLRPTCTSGSKWVSSGSPARVLSECLCVCINICIPFGSIAAV [XPNPEP3] ?
Reply: class 2

Task item: Record: RGPASHGPRTMESPLSS [GNB1L]
Reply: class 0

Task item: Also need LFILEINLTNVMNVEKLLRGSWPLVNTREFILERNPTFVKNVAKPLSAPQPLQATREFIWKRDLTNVKNAAKPVFLRPD [ZNF727] , thanks.
Reply: class 2

Task item: And QCYLVSF [TRMT10A] ?
Reply: class 0

Task item: What would you report for YKKEKKAKKKK [IQCA1] ?
Reply: class 0

Task item: Another substance: LNFQQRPSKDILQDSVIVNIWKVLEIFIVCKYCKCIGIKLSPPLLYETAHWSL [PTHLH]
Reply: class 0

Task item: Now this one: SARSAVSSQWILVNWWRLADTLEKPKPESLLFSLFSCLCSVSLNTTFSAMVCG [MRFAP1]
Reply: class 1

Task item: Subsequent entry: QTGFLSSLKRLLCLRKSICCVSLASGSRTDLQLPNWILLPRSCSEVSFYHSAL [HLA-DPB1]
Reply: class 1

Task item: Next record, please: YMQKWIK [KCNMB2]
Reply: class 2

Task item: Field entry: YAATAKKNRVRKLLGWVDLGIFYLVKALYSHRRKIWDISIIYILI [RFPL3]
Reply: class 2

Task item: CCCCCCCC [Cys08] ?
Reply: class 1

Task item: Can you handle RSQLCSGQACSLRTLTTLDLELGTCGHSSSPGCIP [CIITA] next?
Reply: class 2

Task item: Follow-up entry: RQEGRPHCFSHPFPLLPMGRGPGCRKSSYLQELHHNLEGSSWSCEFSLYSVTIPDHLIKMLPPSIGFIELVTS [NME1]
Reply: class 1

Task item: Moving on to LWRWWPRGGLLGGVGDKTGQTTGPPKTVKG [HS6ST1]
Reply: class 2

Task item: Now consider LVTGYVKSFNVVLKSKGLLITDSRIMCS [FEM1B] and answer again.
Reply: class 2
